// reported nuclei count per item
# procedure.text: endothelial E-selectin expression blockers – imaging, HUVEC, immunofluorescence, MLSMR starter and 10KST1 sets, primary screen (AID 487);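 also: 100% = median nuclei count of all wells on the same plate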
# measurement.conditions: HUVEC TNFalpha-induced E-selectin immunofluorescence imaging, at 2 µM; measured here: cell number, toxicity

[
  {
    "molecule": "Cn1c(=O)[nH]c(=O)c2c1ncn2CCN1CCOCC1",
    "reported.result": "102%"
  }
]

Below: the item to evaluate.
Incoming: May I ask what nuclei count has been recorded for COc1cccc(C(=O)N2CCCC(c3nc(-c4cccs4)no3)C2)c1 (stereo unspecified) ?
Outgoing: 95.9%

====

# procedure.text: blockers of RIG-like receptor reporter activation – cell-based, Sendai virus stimulus, luciferase, 10K MLSCN set, TLR/RLR signaling modifier project, primary screen (AID 602276);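 also: firefly luciferase from ISG56 promoter only with Renilla not read in this screen; 0% = Sendai virus plus DMSO and 100% = medium plus DMSO without virus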
# measurement.conditions: HEK293 RL24 IRF3 luciferase reporter, at 10 µM, stronger effect = higher value
measured.property: inhibition (%)
Field format: number, assumed %, no unit text.

[
  {
    "compound": "COc1cc(OC)cc(OCC(O)Cn2cnc(-c3ccccc3)c2)c1 (stereo unspecified)",
    "units.symbol": "%",
    "inhibition": 17.6
  },
  {
    "compound": "CCN(CC)S(=O)(=O)c1ccc(S(=O)(=O)N(Cc2ccccn2)Cc2ccco2)cc1",
    "units.symbol": "%",
    "inhibition": 6.58
  },
  {
    "compound": "O=C(CN1CCCC1)Nc1ccc(NC(=O)Nc2ccccc2)cc1",
    "units.symbol": "%",
    "inhibition": -33.7
  },
  {
    "compound": "O=c1cnnc(NCc2ccccc2)[nH]1",
    "units.symbol": "%",
    "inhibition": 1.13
  },
  {
    "compound": "O=C(CSc1nnc2ncccn12)N1CCCCCC1",
    "units.symbol": "%",
    "inhibition": 4.98
  },
  {
    "compound": "COc1nc(NCCc2ccc(OC)c(OC)c2)nc(NC(C)(C)CO)n1",
    "units.symbol": "%",
    "inhibition": 15.5
  },
  {
    "compound": "COc1ccccc1N1CCN(C(=O)C2CCCO2)CC1 (stereo unspecified)",
    "units.symbol": "%",
    "inhibition": 11.6
  },
  {
    "compound": "COc1ccc2c(c1)C(C)=CC(C)(C)N2C(=O)C(C)N1C(=O)c2ccccc2C1=O (stereo unspecified)",
    "units.symbol": "%",
    "inhibition": 5.4
  }
]

Incoming: May I ask what inhibition has been recorded for C/C(N)=C(/C#N)C(=O)COC(=O)c1cc(C)n(-c2ccc(F)cc2)c1C ?
Outgoing: 15.2

Incoming: How about CCCc1cc(C(=O)Nc2sc3c(c2C#N)CCC3)no1 ?
Outgoing: 7.08

Incoming: How about Clc1cccc(-c2nnc3sc(-c4ccccc4)nn23)c1 ?
Outgoing: -35.9

====

# measured.on: Alpha-2C adrenergic receptor (Homo sapiens) (UniProt P18825)
# Sequence (P18825 whole entry, looked up): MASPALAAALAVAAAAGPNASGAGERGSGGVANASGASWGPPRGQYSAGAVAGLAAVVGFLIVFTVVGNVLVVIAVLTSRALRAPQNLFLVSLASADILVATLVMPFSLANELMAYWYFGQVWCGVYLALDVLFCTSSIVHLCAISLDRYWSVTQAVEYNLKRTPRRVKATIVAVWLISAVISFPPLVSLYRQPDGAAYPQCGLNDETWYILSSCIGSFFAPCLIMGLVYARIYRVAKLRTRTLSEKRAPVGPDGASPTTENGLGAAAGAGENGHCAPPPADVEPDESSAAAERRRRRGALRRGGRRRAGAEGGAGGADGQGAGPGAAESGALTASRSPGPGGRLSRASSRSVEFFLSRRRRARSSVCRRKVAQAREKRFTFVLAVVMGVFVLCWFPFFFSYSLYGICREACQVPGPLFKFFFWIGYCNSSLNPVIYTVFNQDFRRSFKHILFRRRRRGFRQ
# procedure.text: compounds altering alpha2C-coupled GIRK flux – cell-based, HEK293 alpha2C/GIRK1/2, thallium flux, primary screen (AID 624);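 also: slope of fluorescence ratio to pre-addition baseline per second over 15 to 24 s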
# measurement.conditions: thallium flux BTC fluorescence, at 10 µM, actives lie on both sides
// reported slope per item
A bare number is all that is needed in reply.

Incoming: May I ask what slope has been recorded for CCCN1C=CC(=C2C(=O)c3ccccc3C2=O)C=C1 ?
Outgoing: 0.00522
